These entries and their values trace back to ChEMBL document CHEMBL4513216.

# protocol-text: Toxicity liver stage against HepG2, at 10uM
# Assay type: cell-based
# Set-up: test concentration 10 uM, cell line HepG2-A16-CD81EGFP
# measurement-conditions: human, HepG2-A16-CD81EGFP cells; read-out: INHIBITION
measured-endpoint: cytotoxicity at 10 µM (%)
The response must be a number in % with no trailing unit.

Some solved cases for reference:
compound	cytotoxicity at 10 µM, %
NC(=O)c1ccc(N2CCN(Cc3ccc(F)cc3Cl)CC2)nn1	62.6
Cc1nc(C(NC(=O)CN(C)C(C)C)c2ccccc2F)no1 (configuration not stated)	-2.64

Qu. # input compound: CN(C)S(=O)(=O)N1CCN(c2ccnc(N3CCCCC3)n2)CC1 ; wanted: its cytotoxicity at 10 µM
Ans. -1.48

Qu. # input compound: COCCc1noc(CN2CCCCC2Cn2cncn2)n1 (configuration not stated) ; wanted: its cytotoxicity at 10 µM
Ans. -1.9

Qu. # input compound: Cc1ccc(CN2CCCC3(CCN(S(=O)(=O)N(C)C)C3)C2)o1 (configuration not stated) ; wanted: its cytotoxicity at 10 µM
Ans. 7.49

Qu. # input compound: CC(C(=O)Nc1ncccn1)N1CCC(n2ccnc2)CC1 (configuration not stated) ; wanted: its cytotoxicity at 10 µM
Ans. -8.15

Qu. # input compound: O=C(c1ccco1)N1CCCC(c2cc(C(F)(F)F)[nH]n2)C1 (configuration not stated) ; wanted: its cytotoxicity at 10 µM
Ans. -16.1

Qu. # input compound: COCCCN1CCN(CCOC)C(C)C1 (configuration not stated) ; wanted: its cytotoxicity at 10 µM
Ans. -13.4
